FYI, the data here is from ChEMBL document CHEMBL4270597.

For Amine oxidase [flavin-containing] A (Homo sapiens, UniProt P21397), measured IC50 is reported for the entries below.

{"compoundSmiles": "CC(C)(C)c1cc(/C=C/C(=O)NCCC2CCN(Cc3ccccc3F)CC2)cc(C(C)(C)C)c1O", "IC50, µM": 60.2}
{"compoundSmiles": "CC(C)(C)c1cc(C(=O)CNCC2CCN(Cc3ccccc3)CC2)cc(C(C)(C)C)c1O", "IC50, µM": 41.5}
{"compoundSmiles": "CC(C)(C)c1cc(/C=C/C(=O)NCCC2CCN(Cc3ccc(F)c(F)c3)CC2)cc(C(C)(C)C)c1O", "IC50, µM": 64.5}
{"compoundSmiles": "CC(C)(C)c1cc(/C=C/C(=O)NCCC2CCN(Cc3ccc(C#N)cc3)CC2)cc(C(C)(C)C)c1O", "IC50, µM": 78.2}
{"compoundSmiles": "Cc1ccccc1CN1CCC(CCNC(=O)/C=C/c2cc(C(C)(C)C)c(O)c(C(C)(C)C)c2)CC1", "IC50, µM": 69.3}
{"compoundSmiles": "CC(C)(C)c1cc(/C=C/C(=O)NCCC2CCN(Cc3ccccc3Cl)CC2)cc(C(C)(C)C)c1O", "IC50, µM": 72.1}
{"compoundSmiles": "CC(C)(C)c1cc(/C=C/C(=O)NC2CCN(Cc3ccccc3)CC2)cc(C(C)(C)C)c1O", "IC50, µM": 42.5}
{"compoundSmiles": "CC(C)(C)c1cc(C(=O)CNCCC2CCN(Cc3ccccc3)CC2)cc(C(C)(C)C)c1O", "IC50, µM": 95.2}
{"compoundSmiles": "CC(C)(C)c1cc(/C=C/C(=O)NCCC2CCN(Cc3ccccc3)CC2)cc(C(C)(C)C)c1O", "IC50, µM": 62.3}

---

Ratio IC50: recorded values
# Organism: Homo sapiens
# procedureDetails: Selectivity index, ratio of IC50 for human serum BuChE to IC50 for human erythrocyte AChE
quantityMeasured: Ratio IC50

{"compoundSmiles": "CC(C)(C)c1cc(/C=C/C(=O)NCCC2CCN(Cc3ccccc3F)CC2)cc(C(C)(C)C)c1O", "rel": ">", "experimentalResult": 133}
{"compoundSmiles": "CC(C)(C)c1cc(C(=O)CNCCC2CCN(Cc3ccccc3)CC2)cc(C(C)(C)C)c1O", "rel": "=", "experimentalResult": 14}
{"compoundSmiles": "CC(C)(C)c1cc(CCC(=O)NCCC2CCN(Cc3ccccc3)CC2)cc(C(C)(C)C)c1O", "rel": ">", "experimentalResult": 33}
{"compoundSmiles": "Cc1ccccc1CN1CCC(CCNC(=O)/C=C/c2cc(C(C)(C)C)c(O)c(C(C)(C)C)c2)CC1", "rel": ">", "experimentalResult": 40}
{"compoundSmiles": "O=C(/C=C/c1ccccc1)NCCC1CCN(Cc2ccccc2)CC1", "rel": "=", "experimentalResult": 3.7}
{"compoundSmiles": "CC(C)(C)c1cc(/C=C/C(=O)NCCC2CCN(Cc3ccc(C#N)cc3)CC2)cc(C(C)(C)C)c1O", "rel": ">", "experimentalResult": 36}
{"compoundSmiles": "O=C(/C=C/c1ccc(O)cc1)NCCC1CCN(Cc2ccccc2)CC1", "rel": "=", "experimentalResult": 0.49}
{"compoundSmiles": "CC(C)(C)c1cc(/C=C/C(=O)NCCC2CCN(Cc3ccccc3)CC2)cc(C(C)(C)C)c1O", "rel": "=", "experimentalResult": 38}
{"compoundSmiles": "CC(C)(C)c1cc(C(=O)CNCC2CCN(Cc3ccccc3)CC2)cc(C(C)(C)C)c1O", "rel": "=", "experimentalResult": 4}

---

# assaySystem: Amine oxidase [flavin-containing] A (Homo sapiens, UniProt P21397)
# Sequence (P21397 whole entry): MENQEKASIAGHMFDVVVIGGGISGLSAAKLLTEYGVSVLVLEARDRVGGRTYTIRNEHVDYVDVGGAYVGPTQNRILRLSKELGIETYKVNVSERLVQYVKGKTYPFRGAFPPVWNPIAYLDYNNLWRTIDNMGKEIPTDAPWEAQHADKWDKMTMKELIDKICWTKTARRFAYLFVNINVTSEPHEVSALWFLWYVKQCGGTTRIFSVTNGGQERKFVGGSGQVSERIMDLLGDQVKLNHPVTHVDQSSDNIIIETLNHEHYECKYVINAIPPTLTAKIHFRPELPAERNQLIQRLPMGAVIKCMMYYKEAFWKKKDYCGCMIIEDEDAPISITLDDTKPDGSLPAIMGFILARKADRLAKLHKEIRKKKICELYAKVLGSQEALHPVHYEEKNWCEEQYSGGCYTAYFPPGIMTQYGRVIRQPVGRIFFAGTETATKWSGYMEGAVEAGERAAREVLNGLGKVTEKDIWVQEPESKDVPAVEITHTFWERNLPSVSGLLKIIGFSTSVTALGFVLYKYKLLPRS
Label t when IC50 is strictly below 70 µM; at or above that, label f.

{"compoundSmiles": "CC(C)(C)c1cc(CCC(=O)NC2CCN(Cc3ccccc3)CC2)cc(C(C)(C)C)c1O", "assaySystem": "Amine oxidase [flavin-containing] A (Homo sapiens, UniProt P21397)", "groupLabel": "f"}
{"compoundSmiles": "COc1ccc(CN2CCC(CCNC(=O)/C=C/c3cc(C(C)(C)C)c(O)c(C(C)(C)C)c3)CC2)cc1", "assaySystem": "Amine oxidase [flavin-containing] A (Homo sapiens, UniProt P21397)", "groupLabel": "f"}
{"compoundSmiles": "CC(C)(C)c1cc(/C=C/C(=O)NCCC2CCN(Cc3cccc(Cl)c3)CC2)cc(C(C)(C)C)c1O", "assaySystem": "Amine oxidase [flavin-containing] A (Homo sapiens, UniProt P21397)", "groupLabel": "t"}
{"compoundSmiles": "CC(C)(C)c1cc(C(=O)NCCC2CCN(Cc3ccccc3)CC2)cc(C(C)(C)C)c1O", "assaySystem": "Amine oxidase [flavin-containing] A (Homo sapiens, UniProt P21397)", "groupLabel": "f"}
{"compoundSmiles": "CC(C)(C)c1cc(/C=C/C(=O)NCCC2CCN(Cc3cccc(F)c3)CC2)cc(C(C)(C)C)c1O", "assaySystem": "Amine oxidase [flavin-containing] A (Homo sapiens, UniProt P21397)", "groupLabel": "t"}
{"compoundSmiles": "CC(C)(C)c1cc(/C=C/C(=O)NCC2CCN(Cc3ccccc3)CC2)cc(C(C)(C)C)c1O", "assaySystem": "Amine oxidase [flavin-containing] A (Homo sapiens, UniProt P21397)", "groupLabel": "t"}
{"compoundSmiles": "CC(C)(C)c1cc(/C=C/C(=O)NCCC2CCN(Cc3ccc(F)cc3)CC2)cc(C(C)(C)C)c1O", "assaySystem": "Amine oxidase [flavin-containing] A (Homo sapiens, UniProt P21397)", "groupLabel": "t"}
{"compoundSmiles": "CC(C)(C)c1cc(CCC(=O)NCCC2CCN(Cc3ccccc3)CC2)cc(C(C)(C)C)c1O", "assaySystem": "Amine oxidase [flavin-containing] A (Homo sapiens, UniProt P21397)", "groupLabel": "f"}
{"compoundSmiles": "CC(C)(C)c1cc(/C=C/C(=O)NCCC2CCN(Cc3ccc(Br)cc3)CC2)cc(C(C)(C)C)c1O", "assaySystem": "Amine oxidase [flavin-containing] A (Homo sapiens, UniProt P21397)", "groupLabel": "f"}
{"compoundSmiles": "CC(C)(C)c1cc(C(=O)CNC2CCN(Cc3ccccc3)CC2)cc(C(C)(C)C)c1O", "assaySystem": "Amine oxidase [flavin-containing] A (Homo sapiens, UniProt P21397)", "groupLabel": "f"}

---

Listed here: items and their measured pIC50.
# assaySystem: Amine oxidase [flavin-containing] B (Homo sapiens)
# Sequence (P27338 whole entry): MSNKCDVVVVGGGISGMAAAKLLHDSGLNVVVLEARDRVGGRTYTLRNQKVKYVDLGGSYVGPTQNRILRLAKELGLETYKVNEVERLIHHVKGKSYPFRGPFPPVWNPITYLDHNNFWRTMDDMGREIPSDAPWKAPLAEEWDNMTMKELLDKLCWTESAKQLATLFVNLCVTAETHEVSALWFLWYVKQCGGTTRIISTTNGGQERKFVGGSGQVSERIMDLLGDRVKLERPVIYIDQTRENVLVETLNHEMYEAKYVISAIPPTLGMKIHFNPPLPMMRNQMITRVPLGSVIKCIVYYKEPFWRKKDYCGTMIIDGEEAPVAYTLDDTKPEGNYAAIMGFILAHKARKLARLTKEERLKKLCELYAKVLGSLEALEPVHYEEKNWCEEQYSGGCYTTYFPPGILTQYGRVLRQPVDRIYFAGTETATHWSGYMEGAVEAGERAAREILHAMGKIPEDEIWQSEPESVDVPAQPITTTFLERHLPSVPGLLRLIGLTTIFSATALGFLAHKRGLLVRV
# procedureDetails: Inhibition of human MAO-B using p-tyramine as substrate incubated for 15 mins followed by substrate addition measured for 20 mins by fluorescence assay
pIC50: −log10 of the molar value.

{"compoundSmiles": "CC(C)(C)c1cc(CCC(=O)NC2CCN(Cc3ccccc3)CC2)cc(C(C)(C)C)c1O", "pIC50": 4.15}
{"compoundSmiles": "CC(C)(C)c1cc(/C=C/C(=O)NCCC2CCN(Cc3ccccc3F)CC2)cc(C(C)(C)C)c1O", "pIC50": 5.13}
{"compoundSmiles": "CC(C)(C)c1cc(CCC(=O)NCCC2CCN(Cc3ccccc3)CC2)cc(C(C)(C)C)c1O", "pIC50": 4.33}
{"compoundSmiles": "CC(C)(C)c1cc(C(=O)NC2CCN(Cc3ccccc3)CC2)cc(C(C)(C)C)c1O", "pIC50": 4.07}
{"compoundSmiles": "CC(C)(C)c1cc(/C=C/C(=O)NCCC2CCN(Cc3ccc(Br)cc3)CC2)cc(C(C)(C)C)c1O", "pIC50": 4.88}
{"compoundSmiles": "CC(C)(C)c1cc(C(=O)CNCCC2CCN(Cc3ccccc3)CC2)cc(C(C)(C)C)c1O", "pIC50": 4.04}

---

# procedureDetails: Effective permeability of the compound at […] after 16 hrs by PAMPA-BBB assay
# Type: ADME
# setupConditions: read-out: Peff
quantityMeasured: Papp at 16 h

{"compoundSmiles": "CC(C)(C)c1cc(/C=C/C(=O)NCCC2CCN(Cc3ccccc3F)CC2)cc(C(C)(C)C)c1O", "quantityMeasured": "Papp at 16 h", "experimentalResult": "5.5 ×10⁻⁶ cm/s"}
